# test_target: aldose reductase (Bos taurus, UniProt P16116)
# Construct: The enzyme is extracted from beef crystalline lens; from tissue; host or cells: beef crystalline lens
# procedure_summary: Inhibition of aldose reductase in vitro (reduction of glyceraldehyde to glycerol, spectrophotometric NADPH determination)
# Format: biochemical
# recorded_conditions: enzyme from beef crystalline lens; substrate glyceraldehyde; read-out: log 1/CI50 (CI50 = concentration in mole/l resulting in 50% inhibition of the enzymatic activity) (converted)
Where a name gives a salt, the structure may show the parent alone.
result_type: IC50 (µM)
Give the number; µM is assumed, so skip it.

// IC50 lookup, key: CCCc1c(-c2ccc(C(=O)O)cc2)oc2cc(NC(=O)CN3CCOCC3)ccc2c1=O [COR 35 02, hydrochloride]
7.08

// IC50 lookup, key: "CCCc1c(-c2ccc(C(=O)O)cc2)oc2cc(NS(C)(=O)=O)ccc2c1=O"
0.126

// IC50 lookup, key: "CCCc1c(-c2ccc(C(=O)OC)cc2)oc2cc(NS(C)(=O)=O)ccc2c1=O"
3.98

// IC50 lookup, key: "CC(=O)Nc1ccc2c(=O)c(OC(C)=O)c(-c3ccc(C(=O)O)cc3)oc2c1"
6.31
